Task for the reader: assign each of the following compounds its reported pEC50.
- Tested on: MT-4 (Homo sapiens)
- assay comment: Anti-HIV activity to protect MT-4 cells from cytopathogenicity induced by HIV-1 K103N-Y181C (MTT method)
Give bare numbers, as −log10 of the molar value.

compound string | observed result
Cc1cccc(S(=O)(=O)c2c(C(N)=O)[nH]c3ccc(Cl)cc23)c1 | 5.15

# evaluate next
Give the measured pEC50 of `Cc1ccccc1S(=O)(=O)c1c(C(N)=O)[nH]c2ccc(Cl)cc12` . 5.00

====

Task for the reader: assign each of the following compounds its reported pEC50.
- System: MT-4 (Homo sapiens)
- assay comment: Anti-HIV activity to protect MT-4 cells from cytopathogenicity induced by HIV-1 K103N-Y181C (MTT method)
Give bare numbers, as −log10 of the molar value.

compound string | pEC50
Cc1cc(C)cc(S(=O)(=O)c2c(C(N)=O)[nH]c3ccc(Cl)cc23)c1 | 6.19

# evaluate next
Give the measured pEC50 of `Cc1ccc(S(=O)(=O)c2c(C(N)=O)[nH]c3ccc(Cl)cc23)c(C)c1` . 5.00
